protocol text: NCI Yeast Anticancer Drug Screen. Data for the bub3 strain (AID 167)
condition details: S. cerevisiae bub3 mutant strain, at 50.0 µM, active compounds read high
This is part of a sample that, as a whole, favours compounds with a hit. Of some 79,000 tested, about 15% had one in any assay. Where a SMILES comes first, the peptide text is derived from it. The star is where a group is joined. Trt = c1ccc(C(c2ccccc2)(c2ccccc2)*)cc1; Cbz = O=C(OCc1ccccc1)*
# growth inhibition values compiled below

| molecule | readout units | growth inhibition |
| --- | --- | --- |
| COc1ccc(N2C(=O)C3c4[nH]c5cccc(C)c5c4C4CCC(C(C)(C)C)CC4C3C2=O)cc1 (configuration not stated) | % | 2.8 |
| COC(=O)C(CO)NC(=O)C(CSC(c1ccccc1)(c1ccccc1)c1ccccc1)NC(=O)OCc1ccccc1 (configuration not stated) (Cbz-Cys(Trt)-Ser-OMe; configuration not given here) | % | 67.2 |
| C1CCCNCCNCCNCC1 | % | -20.8 |
| CC1C=CC(C(N)C(=O)O)O1 (configuration not stated) | % | -5.35 |
| CCOC(=O)/C(C#N)=C/c1ccccc1OC | % | 47.5 |
| O=C(O)CCC(=O)c1ccc2c3c1CCCC3CC2 (configuration not stated) | % | 17.2 |
| CCOC(=O)CC1(C)SCCN1C(N)=O (configuration not stated) | % | 4 |

* * *

protocol text: NCI Yeast Anticancer Drug Screen. Data for the mlh1 rad18 strain (AID 175)
condition details: S. cerevisiae mlh1 rad18 strain growth inhibition; at 50.0 µM; active compounds read high
This is part of a sample that, as a whole, favours compounds with a hit. Of some 79,000 tested, about 15% had one in any assay.

| compound | growth inhibition (%) |
| --- | --- |
| CCCC(=O)SCC[N+](C)(C)C | 4.5 |
| Fc1ccc(C2=NOC3COC4C=CC=CC4OCC23)cc1 (stereo not drawn) | -42.2 |
| CN(N=O)C(=O)NCc1ccc(Cl)cc1 | 1.15 |
| CCc1cc2c(c3c1CCCC3=O)CC1(C2)Cc2cc(CC)c3c(c2C1)C(=O)CCC3 | 4.5 |
| CC(C)(O)C(C)(O)C#CC(C)(O)C(C)(C)O (stereo not drawn) | 6.75 |
| O=C(Nc1cccc2c1C(=O)c1cc(Cl)ccc1C2=O)c1ccccc1 | -2.3 |
| CCOC(=O)/C=C(/C)N(CC)CC | 19.9 |
| COc1cc(C(NC(N)=O)c2cc3c(cc2O)OCO3)cc(OC)c1O (stereo not drawn) | 4.05 |
| Nc1nc2cc(Cl)c(O)cc2o1 | -7.9 |
| CC1(C)OC(=O)C=C[C@@]2(C)C1CC(=O)C1(C)C2CCC2(C)C(c3ccoc3)OC(=O)[C@H]3O[C@]321 (stereo partly drawn) | -6.25 |
| CCOC(=O)c1ccc(-n2nc3nc(N)[nH]c(=O)c3n2)cc1 | -34.4 |
| COC(=O)CCSSCCC(=O)OC | 24.9 |
| Cc1cc(N=C2C=C(Nc3cc(C)on3)C(=O)c3ccccc32)no1 | 6.05 |
| OCC1CCCC1 | 9.7 |
| O=C(Nc1ccccc1[N+](=O)[O-])OCCOc1ccccc1 | -9.85 |
| O=C(Nc1ccc(NC(=O)Nc2cc(C(F)(F)F)ccc2Oc2ccc(Cl)c(Cl)c2)cc1)Nc1cc(C(F)(F)F)ccc1Oc1ccc(Cl)c(Cl)c1 | -19.7 |
| CCCc1ccc(N=Cc2cc(OC)c(OC)c(OC)c2)cc1 | 21.6 |
| Oc1cc2oc3cc(O)c(O)cc3c2cc1O | 23.9 |
| Cc1ccc(S(=O)(=O)NC2C(=O)c3ccccc3C(=O)C2n2ccnc2)cc1 (stereo not drawn) | -21.5 |
| COc1cc(NS(=O)(=O)c2ccc(C)cc2)c2nccnc2c1 | 29.6 |
| C[N+]1=C2[B-](C(C)(C)C)=[N+](C(C)(C)C)[B-]2(C(C)(C)C)[N+](C)=C2[B-](C(C)(C)C)=[N+](C(C)(C)C)[B-]21C(C)(C)C (stereo not drawn) | -9.85 |
| Cc1ccc(/C(C#N)=C/c2ccccc2)cc1 | 9.65 |
| Cc1cc2nc(CC(O)c3nc4cc(C)c(C)cc4[nH]3)[nH]c2cc1C (stereo not drawn) | 5.8 |
| O=[N+]([O-])c1c(F)cc(F)cc1F | -6.65 |
| COc1onc(C)c1CC(=O)O | 2.75 |
| COc1ccc(C2=Nn3c(nc4sc(C)c(C)c4c3=O)SC2)cc1 | -14.3 |
| C=C(C)c1ccc2c(c1)C(=O)C[C@@H]1[C@](C)(C#N)CCC[C@]21C | -33.9 |
| O=C(O)CSc1n[nH]c(-c2ccco2)n1 | 7.7 |
| CN(c1ccccc1)c1cc2nc3ccccc3nc2cc1O | -1.6 |
| CC(=O)NC(Cc1ccccc1)C(=O)Nc1ccccc1C (stereo not drawn) | 7.35 |
| CC(C)CN1CC(=O)N2Cc3ccccc3CN2C(=O)C1 | -2.5 |
| NC(=O)COc1ccccc1 | 27.9 |
| CN(C)c1ccc(/C=C(\C#N)c2ccc(Cl)cc2Cl)cc1 | 0.95 |

Reference source: PubChem BioAssay (NCI)
